Parameter: MIC in the media L-Ala. Scope: all listed entries.
- Tested on: M. tuberculosis
- Assay type: cell-based, Mycobacterium tuberculosis
- measurementContext: pH 6.8
measurementType: MIC in the media L-Ala (µg/mL)

molecule	resultNumber
Cc1ccc2ccc(C#N)cc2c1O	9.16
NN=C1C(Cl)=C(Cl)C(Cl)=C1Cl	5.80
NC(=O)c1cnccn1	200
C=CCOc1c(CCC)cc(CCC)cc1C(N)=O	13.07
NC(=O)c1cccnc1	400
CC[C@@]1([C@@H]2O[C@@H]([C@H]3O[C@@](O)(CO)[C@H](C)C[C@@H]3C)C[C@@H]2C)CC[C@H]([C@]2(C)CC[C@]3(C[C@H](O)[C@@H](C)[C@@H]([C@@H](C)[C@@H](OC)[C@H](C)C(=O)[O-])O3)O2)O1.[Na+]	4.33
COc1ccc(C2CC(=O)c3c(O)cc(O)cc3O2)cc1O (stereo not drawn)	7.56
CCN(CC)CCOc1ccc(C(=C(Cl)c2ccccc2)c2ccccc2)cc1.O=C(O)CC(O)(CC(=O)O)C(=O)O (mixture of isomers)	1.91
O=C(Nc1ccccc1)c1cc(Cl)ccc1O	1.55
CCCOC(=O)c1ccc(N)cc1	0.12
OC(COc1ccc(Cl)cc1)CN1CCN(c2cccc(Cl)c2)CC1 (stereo not drawn)	4.77
O=C1C[C@@H](c2ccccc2)Oc2cc(O)cc(O)c21	6.36
c1ccc2c(c1)Sc1ccccc1N2CC1CN2CCC1CC2 (stereo not drawn)	8.06
N=C(N)c1ccc(OCCCCCOc2ccc(C(=N)N)cc2)cc1	2.13
CCCCOC(=O)c1ccc(N)cc1	0.06
Oc1ccc(Cc2ccccc2Cl)c(O)c1	5.87
CS(=O)(=O)O.OC(c1cc(C(F)(F)F)nc2c(Cl)cc(Cl)cc12)C1CCCCN1 (stereo not drawn)	2.97
Cc1c(Cl)ccc2c(C(=O)O)cc(-c3ccccc3)nc12	7.44
NC(=O)c1ccc(N)cc1	6.81
O=[N+]([O-])c1cc([N+](=O)[O-])c2cccnc2c1O	0.75
O=C1CC(c2ccc(O)cc2)Oc2cc(O)cc(O)c21 (stereo not drawn)	6.81
O=C1C(O)=C(c2ccccc2)C(=O)C(O)=C1c1ccccc1	7.31
COC(=O)c1cccc([N+](=O)[O-])c1	9.06
CN(C)c1ccc(N=Nc2ccccn2)cc1	5.66
O=[N+]([O-])c1oc2ccc3ccccc3c2c1CCO	0.82
COc1ccc2nc3cc(Cl)ccc3c(Nc3cc(C(C)C)c(O)cc3C)c2c1	2.54
CCOC(=O)c1cccc([N+](=O)[O-])c1	2.44
Cc1ccc(NC(c2ccccc2)c2ccc3cccnc3c2O)cc1 (stereo not drawn)	17.02
CC[C@@H](O)C[C@H]1CCC[C@@]2(C[C@@H]3OC(=O)/C=C/[C@@](C)(O)[C@@H](O)[C@H](C)[C@@H](O)[C@H](OC4CCC(N(C)C)C(C)O4)[C@@H](O)[C@](C)(O)CCCCC/C=C/[C@@H]4CC(C)(C)O[C@@]4(O)C[C@H](O2)[C@H]3C)O1 (stereo partly drawn)	5.7
CN1CCc2cc3c(c4c2C1Cc1ccccc1-4)OCO3.Cl (stereo not drawn)	6.98
CC(C)c1ccc2c(c1)CCC1C(C)(C(=O)O)CCCC21C (stereo not drawn)	3.76
NC(=O)c1cccc(N)c1	13.62
NC(=O)c1ccc([N+](=O)[O-])cc1	16.61
